# ASSAY COMMENT: Pharmacokinetics study after IV and PO administration to SD rats
# Assay type: in vivo
# STATED CONDITIONS: SD, rat, plasma, iv, 2 mg/kg, SD rats, i.v. 2 mg·kg^−1; read-out: MRT0‐t

>  <MOLECULE>
COc1cc(OC)c(Cl)c(-c2ccc3c(/C=C/c4ccc(N(C)C(=O)CN5CCN(C)CC5)cc4)n[nH]c3c2)c1Cl [YTH‐60]

>  <UNITS>
h

>  <MRT>
4.5

$$$$

----------
# ASSAY COMMENT: Pharmacokinetics study after IV and PO administration to SD rats
# Assay type: in vivo
# STATED CONDITIONS: Sprague-Dawley, rat, plasma, po, 20 mg/kg, PO 20 mg/kg, 1 h; read-out: Mean plasma concentration
# Experimental: The appropriate amount of YTH‐60 was accurately weighed, added to the final volume of 5% DMSO, 40% PEG400 and 55% normal saline, and vortexed or ultrasonicated to fully mix. Then, 0.4 and 2 mg·mL^−1 of clarified dosing solution was used for intravenous administration and oral gavage administration. […]

>  <LINE NOTATION>
COc1cc(OC)c(Cl)c(-c2ccc3c(/C=C/c4ccc(N(C)C(=O)CN5CCN(C)CC5)cc4)n[nH]c3c2)c1Cl

>  <concentration at 1 h>
32.1 ng/mL

$$$$

----------
# ASSAY COMMENT: Pharmacokinetics study after IV and PO administration to SD rats
# Type: in vivo
# STATED CONDITIONS: SD, rat, plasma, po, 20 mg/kg, PO 20 mg/kg, 8 h; read-out: Mean plasma concentration
MEASUREMENT TYPE: concentration at 8 h

>  <COMPOUND>
COc1cc(OC)c(Cl)c(-c2ccc3c(/C=C/c4ccc(N(C)C(=O)CN5CCN(C)CC5)cc4)n[nH]c3c2)c1Cl [YTH‐60]

>  <MEASUREMENT TYPE>
concentration at 8 h

>  <ENDPOINT RESULT>
81.5 ng/mL

$$$$

----------
# ASSAY COMMENT: Pharmacokinetics study after IV and PO administration to SD rats
# Format: in vivo
# STATED CONDITIONS: SD, rat, plasma, iv, 2 mg/kg, SD rats, i.v. 2 mg·kg^−1; read-out: AUC0‐∞
MEASUREMENT TYPE: AUC (ng·h/mL)

>  <COMPOUND>
COc1cc(OC)c(Cl)c(-c2ccc3c(/C=C/c4ccc(N(C)C(=O)CN5CCN(C)CC5)cc4)n[nH]c3c2)c1Cl [YTH‐60]

>  <UNITS>
ng·h/mL

>  <ENDPOINT RESULT>
793

$$$$

----------
# ASSAY COMMENT: Pharmacokinetics study after IV and PO administration to SD rats
# Format: in vivo
# STATED CONDITIONS: SD, rat, plasma, po, 20 mg/kg, PO 20 mg/kg, 4 h; individual animals 201, 202, 203; read-out: Individual plasma concentration

>  <COMPOUND>
COc1cc(OC)c(Cl)c(-c2ccc3c(/C=C/c4ccc(N(C)C(=O)CN5CCN(C)CC5)cc4)n[nH]c3c2)c1Cl [YTH‐60]

>  <concentration at 4 h, ng/mL>
84.7

$$$$

----------
# ASSAY COMMENT: Pharmacokinetics study after IV and PO administration to SD rats
# Format: in vivo
# STATED CONDITIONS: rat, plasma, po; SD rats, p.o. 20 mg·kg^−1

>  <LINE NOTATION>
COc1cc(OC)c(Cl)c(-c2ccc3c(/C=C/c4ccc(N(C)C(=O)CN5CCN(C)CC5)cc4)n[nH]c3c2)c1Cl

>  <Tmax, h>
4.67

$$$$
